Hi there, I'd appreciate the recorded pIC50 for every entry that follows.
Biological target: OX1 (Homo sapiens)
Sequence (O43613 whole entry): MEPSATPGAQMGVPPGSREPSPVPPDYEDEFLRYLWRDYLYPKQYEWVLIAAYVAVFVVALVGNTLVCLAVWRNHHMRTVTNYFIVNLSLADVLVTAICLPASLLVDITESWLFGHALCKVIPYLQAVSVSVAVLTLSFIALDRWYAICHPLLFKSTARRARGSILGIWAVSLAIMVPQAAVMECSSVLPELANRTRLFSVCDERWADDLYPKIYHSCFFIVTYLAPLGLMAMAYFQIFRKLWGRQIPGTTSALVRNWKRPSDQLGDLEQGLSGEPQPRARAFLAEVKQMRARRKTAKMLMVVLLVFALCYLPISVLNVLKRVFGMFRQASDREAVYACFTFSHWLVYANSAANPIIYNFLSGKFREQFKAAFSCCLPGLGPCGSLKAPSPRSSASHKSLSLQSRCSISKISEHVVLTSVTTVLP
Assay: Measurement of orexin receptor-binding ability ([125I]-OX-A, cell membranes, OX1)
Set-up: expressed in transfected cells; host or cells: CHO cells (membrane preparation)
Conditions: membranes of recombinant CHO cells expressing OX1, 0.2 nM [125I]-OX-A; read-out: OX1 (IC50)
Remember, pIC50 is on a log scale: it is -log10 of the molar concentration.

Notebook entry, OX1 (Homo sapiens) assay: pIC50 of "Cc1ncc(OC[C@@]2(c3ccccc3)C[C@H]2C(=O)Nc2cccc(CCO)c2)c(C)n1" = ?
6.76

Notebook entry, OX1 (Homo sapiens) assay: pIC50 of "COCc1nc(C)ncc1OC[C@@]1(c2ccccc2)C[C@H]1C(=O)Nc1ccc(Cl)cn1" = ?
7.66

Notebook entry, OX1 (Homo sapiens) assay: pIC50 of "Cc1ncc(OC[C@@]2(c3ccccc3)C[C@H]2C(=O)Nc2cccc(S(C)(=O)=O)c2)c(C)n1" = ?
6.34

Notebook entry, OX1 (Homo sapiens) assay: pIC50 of Cc1ncc(OCC2(c3ccc(F)cc3)CC2C(=O)Nc2ccc(C#N)cn2)c(C)n1 (stereo not shown) = ?
6.54

Notebook entry, OX1 (Homo sapiens) assay: pIC50 of "Cc1ncc(OC[C@@]2(c3ccccc3)C[C@H]2C(=O)Nc2cnc(F)c(C)c2)c(C)n1" = ?
6.27

Notebook entry, OX1 (Homo sapiens) assay: pIC50 of "Cc1ncc(OC[C@@]2(c3ccccc3)C[C@H]2C(=O)Nc2ccc(F)nc2)c(C)n1" = ?
6.58

Notebook entry, OX1 (Homo sapiens) assay: pIC50 of "Cc1ncc(OC[C@@]2(c3ccccc3)C[C@H]2C(=O)Nc2ccnc(F)c2)c(C)n1" = ?
6.46

Notebook entry, OX1 (Homo sapiens) assay: pIC50 of "COCc1nc(C)ncc1OC[C@@]1(c2cccc(Cl)c2)C[C@H]1C(=O)Nc1ccccn1" = ?
8.22

Notebook entry, OX1 (Homo sapiens) assay: pIC50 of COc1ccc(C2(COc3cnc(C)nc3C)CC2C(=O)Nc2ccc(Cl)cn2)cc1 (stereo not shown) = ?
7.00

Notebook entry, OX1 (Homo sapiens) assay: pIC50 of "Cc1nc(C)[n+]([O-])cc1OC[C@@]1(c2ccccc2)C[C@H]1C(=O)Nc1ccc(F)nc1" = ?
5.59

Notebook entry, OX1 (Homo sapiens) assay: pIC50 of "Cc1ncc(OC[C@@]2(c3ccccc3)C[C@H]2C(=O)Nc2cnc(Br)c(C)c2)c(C)n1" = ?
5.71

Notebook entry, OX1 (Homo sapiens) assay: pIC50 of "Cc1ncc(OC[C@@]2(c3ccccc3)C[C@H]2C(=O)Nc2cccc(CO)c2)c(C)n1" = ?
6.53

Notebook entry, OX1 (Homo sapiens) assay: pIC50 of "COCc1nc(C)ncc1OC[C@@]1(c2ccc(F)cc2)C[C@H]1C(=O)Nc1ccc(F)c(F)c1" = ?
6.96

Notebook entry, OX1 (Homo sapiens) assay: pIC50 of "Cc1ncc(OC[C@@]2(c3ccccc3)C[C@H]2C(=O)Nc2cccc(N(C)C)c2)c(C)n1" = ?
7.03

Notebook entry, OX1 (Homo sapiens) assay: pIC50 of "Cc1ncc(N(C)C[C@@]2(c3ccccc3)C[C@H]2C(=O)Nc2cc(C)c(F)cn2)c(C)n1" = ?
6.52

Notebook entry, OX1 (Homo sapiens) assay: pIC50 of "COc1cccc(NC(=O)[C@@H]2C[C@@]2(COc2cnc(C)nc2C)c2ccccc2)n1" = ?
6.55

Notebook entry, OX1 (Homo sapiens) assay: pIC50 of "Cc1ncc(OC[C@@]2(c3ccccc3)C[C@H]2C(=O)Nc2ccc(F)c(F)c2)c(C)n1" = ?
7.11

Notebook entry, OX1 (Homo sapiens) assay: pIC50 of "COCc1nc(C)ncc1OC[C@@]1(c2cccc(F)c2)C[C@H]1C(=O)Nc1ccc(F)cc1" = ?
7.92

Notebook entry, OX1 (Homo sapiens) assay: pIC50 of "Cc1ncc(OC[C@@]2(c3ccccc3)C[C@H]2C(=O)Nc2ccc(Cl)c(C#N)c2)c(C)n1" = ?
6.77

Notebook entry, OX1 (Homo sapiens) assay: pIC50 of "COCc1nc(C)ncc1OC[C@@]1(c2ccc(F)cc2)C[C@H]1C(=O)Nc1ccc(Cl)cn1" = ?
7.66

Notebook entry, OX1 (Homo sapiens) assay: pIC50 of "Cc1ncc(OC[C@@]2(c3ccc(F)c(F)c3)C[C@H]2C(=O)Nc2cc(C)c(F)cn2)c(C)n1" = ?
8.52

Notebook entry, OX1 (Homo sapiens) assay: pIC50 of Cc1ncc(OCC2(c3ccccc3C)CC2C(=O)Nc2cccnc2)c(C)n1 (stereo not shown) = ?
6.64

Notebook entry, OX1 (Homo sapiens) assay: pIC50 of "COc1cc(NC(=O)[C@@H]2C[C@@]2(COc2cnc(C)nc2C)c2ccc(F)c(F)c2)ncc1F" = ?
8.44

Notebook entry, OX1 (Homo sapiens) assay: pIC50 of "Cc1ccnc(NC(=O)[C@@H]2C[C@@]2(COc2cnc(C)nc2C)c2ccccc2)c1" = ?
6.64

Notebook entry, OX1 (Homo sapiens) assay: pIC50 of COc1ccccc1C1(COc2cnc(C)nc2C)CC1C(=O)Nc1cccnc1 (stereo not shown) = ?
7.00

Notebook entry, OX1 (Homo sapiens) assay: pIC50 of "COc1ncc(OC[C@@]2(c3ccccc3)C[C@H]2C(=O)Nc2ccc(C#N)cn2)c(C)n1" = ?
5.96

Notebook entry, OX1 (Homo sapiens) assay: pIC50 of "Cc1ncc(OC[C@@]2(c3cc(F)cc(F)c3)C[C@H]2C(=O)Nc2ccc(F)cc2F)c(C)n1" = ?
7.85
